Provenance of the data: ChEMBL document CHEMBL4346726

Experiment: Oral bioavailability in rat
Assay type: ADME, organism-based
Settings: in vivo
Measured attribute: bioavailability
Just the number plus its unit, please.

Here is how some compounds turned out for bioavailability.
CC[C@@H]1[C@@H]2CN(C(=O)[C@H](C(C)(C)C)NC(=O)O[C@@H]3C[C@H]3CCCCCc3nc4ccc(OC)cc4nc3O2)[C@@H]1C(=O)N[C@]1(C(=O)NS(=O)(=O)C2CC2)C[C@H]1CC 100%
COc1ccc2nc3c(nc2c1)O[C@H]1CN(C(=O)[C@H](C(C)(C)C)NC(=O)O[C@@H]2C[C@H]2CCCCC3)[C@H](C(=O)N[C@]2(C(=O)NS(=O)(=O)C3(C)CC3)C[C@H]2C(F)F)[C@@H]1C 100%

Value sought for every listed compound: bioavailability.
1. CC[C@@H]1[C@@H]2CN(C(=O)[C@H](C(C)(C)C)NC(=O)O[C@@H]3C[C@H]3CCCCCc3nc4ccc(OC)cc4nc3O2)[C@@H]1C(=O)N[C@]1(C(=O)NS(=O)(=O)C2CC2)C[C@H]1C(F)F
2. CC[C@@H]1[C@@H]2CN(C(=O)[C@H](C(C)(C)C)NC(=O)O[C@@H]3C[C@H]3CCCCCc3nc4ccc(OC)cc4nc3O2)[C@@H]1C(=O)N[C@]1(C(=O)NS(=O)(=O)C2(C)CC2)C[C@H]1C(F)F

[A]
36%
31%
